Biological target: T1, human Y2 receptor (human, UniProt P49146 1-381)
T1 construct: whole, on cells; used as membrane fraction of hY2R/CHO cells; also called human NPY2R; hY2R
T1 sequence (looked up): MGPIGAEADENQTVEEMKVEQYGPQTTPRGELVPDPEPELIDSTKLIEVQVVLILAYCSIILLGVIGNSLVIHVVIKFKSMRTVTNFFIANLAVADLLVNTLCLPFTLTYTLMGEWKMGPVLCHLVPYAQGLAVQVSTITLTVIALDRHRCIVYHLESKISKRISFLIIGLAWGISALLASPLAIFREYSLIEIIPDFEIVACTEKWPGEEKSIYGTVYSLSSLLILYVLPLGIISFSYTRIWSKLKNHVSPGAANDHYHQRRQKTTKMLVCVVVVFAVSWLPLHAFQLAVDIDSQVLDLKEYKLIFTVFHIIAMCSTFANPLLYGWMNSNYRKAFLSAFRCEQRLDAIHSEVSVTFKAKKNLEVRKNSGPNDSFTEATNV
Assay: RBA: [125I]-PYY displacement, hY2R/CHO membranes
Starred links: 1 amine or outer side, 2 acyl side, 3 side chain; linkers in the order of their positions; H or OH if unused. Non-standard residues stand in square brackets, D forms with d. No end group written: not given here. *: point of attachment. Tyr(Me) = O-methyltyrosine, COc1ccc(C[C@H](N[*:1])C(=O)[*:2])cc1; Phe(3R-OH) = O=C([C@@H](N[*:1])[C@H](O[*:3])c1ccccc1)[*:2]; Phe(4-NH2) = Nc1ccc(C[C@H](N)C(=O)O)cc1; Cha = N[C@@H](CC1CCCCC1)C(=O)O; 4Amb = NCc1ccc(C(=O)O)cc1; Aib = CC(C)(N)C(=O)O; Carbamoyl = NC(=O)*
Field: IC50 Ratio (vs PYY(3-36)). Provide a value for each of the binders that follow.
Unit ratio implied. Number only.

So for Ac-S[dP]RH[Cha][Cha]NL[Aib]TRQR[Phe(3R-OH)]-NH2 (SMILES CC(=O)N[C@@H](CO)C(=O)N1CCC[C@@H]1C(=O)N[C@@H](CCCNC(=N)N)C(=O)N[C@@H](Cc1c[nH]cn1)C(=O)N[C@@H](CC1CCCCC1)C(=O)N[C@@H](CC1CCCCC1)C(=O)N[C@@H](CC(N)=O)C(=O)N[C@@H](CC(C)C)C(=O)NC(C)(C)C(=O)N[C@H](C(=O)N[C@@H](CCCNC(=N)N)C(=O)N[C@@H](CCC(N)=O)C(=O)N[C@@H](CCCNC(=N)N)C(=O)N[C@H](C(N)=O)[C@H](O)c1ccccc1)[C@@H](C)O, also called compound No. 200) [Ac-[D-Pro24, Cha27,28, Aib31, threo-PhSer36]-PYY(23-36)] , the logged IC50 Ratio (vs PYY(3-36)) turned out to be 16

So for [4Amb]RA[Phe(4-NH2)]INLITRQRY-NH2 (N-terminus assumed; SMILES CC[C@H](C)[C@H](NC(=O)[C@H](Cc1ccc(N)cc1)NC(=O)[C@H](C)NC(=O)[C@H](CCCNC(=N)N)NC(=O)c1ccc(CN)cc1)C(=O)N[C@@H](CC(N)=O)C(=O)N[C@@H](CC(C)C)C(=O)N[C@H](C(=O)N[C@H](C(=O)N[C@@H](CCCNC(=N)N)C(=O)N[C@@H](CCC(N)=O)C(=O)N[C@@H](CCCNC(=N)N)C(=O)N[C@@H](Cc1ccc(O)cc1)C(N)=O)[C@@H](C)O)[C@@H](C)CC, also called compound No. 52) [4-Aminomethylbenzoyl-[Ala26, Phe(4NH2)27, Ile28,31]-PYY(25-36)] , the logged IC50 Ratio (vs PYY(3-36)) turned out to be 11

So for [4Amb]RAYINLITRQR[Tyr(Me)]-NH2 (N-terminus assumed; SMILES CC[C@H](C)[C@H](NC(=O)[C@H](Cc1ccc(O)cc1)NC(=O)[C@H](C)NC(=O)[C@H](CCCNC(=N)N)NC(=O)c1ccc(CN)cc1)C(=O)N[C@@H](CC(N)=O)C(=O)N[C@@H](CC(C)C)C(=O)N[C@H](C(=O)N[C@H](C(=O)N[C@@H](CCCNC(=N)N)C(=O)N[C@@H](CCC(N)=O)C(=O)N[C@@H](CCCNC(=N)N)C(=O)N[C@@H](Cc1ccc(OC)cc1)C(N)=O)[C@@H](C)O)[C@@H](C)CC, also called compound No. 7) [4-Aminomethylbenzoyl-[Ala26, Ile28,31, Tyr(Me)36]-PYY(25-36)] , the logged IC50 Ratio (vs PYY(3-36)) turned out to be 5

So for Carbamoyl-S[dP]RH[Cha][Cha]NL[Aib]TRQR[Cha]-NH2 (SMILES CC(C)C[C@H](NC(=O)[C@H](CC(N)=O)NC(=O)[C@H](CC1CCCCC1)NC(=O)[C@H](CC1CCCCC1)NC(=O)[C@H](Cc1c[nH]cn1)NC(=O)[C@H](CCCNC(=N)N)NC(=O)[C@H]1CCCN1C(=O)[C@H](CO)NC(N)=O)C(=O)NC(C)(C)C(=O)N[C@H](C(=O)N[C@@H](CCCNC(=N)N)C(=O)N[C@@H](CCC(N)=O)C(=O)N[C@@H](CCCNC(=N)N)C(=O)N[C@@H](CC1CCCCC1)C(N)=O)[C@@H](C)O, also called compound No. 130; Ureido-[D-Pro24,Cha27,28,36,Aib31]-PYY(23-36)) [Carbamoyl-[D-Pro24, Cha27,28,36, Aib31]-PYY(23-36)] , the logged IC50 Ratio (vs PYY(3-36)) turned out to be 1.8

Cited source: patent US20120172293A1
